These entries and their values trace back to ChEMBL document CHEMBL3232746.

Biological target: Protein arginine N-methyltransferase 6 (Homo sapiens, UniProt Q96LA8)
Sequence (Q96LA8 whole entry): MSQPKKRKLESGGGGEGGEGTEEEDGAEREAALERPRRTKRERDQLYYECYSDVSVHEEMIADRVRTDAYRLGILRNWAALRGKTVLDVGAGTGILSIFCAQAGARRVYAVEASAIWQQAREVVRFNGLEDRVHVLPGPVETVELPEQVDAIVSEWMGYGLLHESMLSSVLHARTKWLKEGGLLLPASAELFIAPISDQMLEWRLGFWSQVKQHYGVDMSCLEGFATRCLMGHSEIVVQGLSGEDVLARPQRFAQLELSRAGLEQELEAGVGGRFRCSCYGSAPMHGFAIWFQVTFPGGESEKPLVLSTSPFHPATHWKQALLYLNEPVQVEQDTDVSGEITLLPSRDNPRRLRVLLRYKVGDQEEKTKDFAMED
Please go through the items and note down their IC50.
One number for each entry, in µM.

Qu. I'd like to know its IC50. The molecule in question is N=C(N)c1ccc(-c2ccc(-c3ccc(C(=N)N)cc3)o2)cc1
Ans. 283

Qu. I'd like to know its IC50. The molecule in question is N=C(N)c1ccc(/C=C/c2ccc(C(=N)N)cc2)cc1
Ans. 173

Others:
Qu. I'd like to know its IC50. The molecule in question is N=C(N)c1ccc(-c2ccc(-c3ccc(C(=N)N)nc3)o2)cc1
Ans. 211

---

Please go through the items and note down their IC50.
Target: Protein arginine N-methyltransferase 1 (Homo sapiens, UniProt Q99873)
Sequence (Q99873 whole entry): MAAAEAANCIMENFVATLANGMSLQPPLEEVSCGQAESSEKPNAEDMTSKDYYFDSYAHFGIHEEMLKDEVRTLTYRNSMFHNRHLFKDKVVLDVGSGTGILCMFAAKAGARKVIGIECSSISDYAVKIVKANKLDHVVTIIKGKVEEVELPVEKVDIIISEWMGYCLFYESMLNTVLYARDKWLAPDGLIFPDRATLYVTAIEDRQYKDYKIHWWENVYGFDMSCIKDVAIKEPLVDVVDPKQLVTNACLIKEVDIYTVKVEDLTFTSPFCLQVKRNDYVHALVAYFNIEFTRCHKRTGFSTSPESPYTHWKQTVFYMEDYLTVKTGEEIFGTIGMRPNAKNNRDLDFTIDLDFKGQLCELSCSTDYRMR
Test: Inhibition of His6x-tagged recombinant PRMT1 (unknown origin) expressed in Escherichia coli BL21(DE3) using [3H]SAM and histone H4 (1 to 20) as substrate after 8 mins by P81 filter binding assay
One number for each entry, in µM.

Qu. I'd like to know its IC50. The compound in question is N=C(N)c1ccc(-c2ccc(-c3ccc(C(=N)N)cc3)o2)cc1 [FURAMIDINE]
Ans. 9.4

Others:
Qu. I'd like to know its IC50. The compound in question is N=C(N)c1ccc(-c2ccc(-c3ccc(C(=N)N)nc3)o2)cc1
Ans. 7.2
